- Tested on: Candida albicans IFO-1388
- Method notes: Antifungal activity, standard agar dilution streak method
- Type: cell-based
- Measurement parameters: IFO1388, read-out: Minimum inhibitory concentration
- Protocol: The antifungal activity of the compound of the present invention was assayed by the standard agar dilution streak method against fungi.
Exercise: for every item that follows, state its recorded log10 MIC.
Please keep in mind that the values are log10 of MIC expressed in µg/mL.

Query: Please give the measured log10 MIC for this compound: Cc1ccc(-c2ncc3nc(Cl)cc(Cl)n23)s1
Response: 0.80

Query: Please give the measured log10 MIC for this compound: Clc1cc(Cl)n2c(-c3ccc(Cl)s3)ncc2n1
Response: -0.11

Query: Please give the measured log10 MIC for this compound: Clc1cc(Cl)n2c(-c3ccsc3)ncc2n1
Response: 0.80

Query: Please give the measured log10 MIC for this compound: Clc1cc(Cl)n2c(-c3ccccc3)nc(Cl)c2n1
Response: 0.50

Query: Please give the measured log10 MIC for this compound: Clc1cc(Cl)n2c(-c3ccco3)ncc2n1
Response: 0.50

Query: Please give the measured log10 MIC for this compound: Clc1cc(Cl)n2c(C3CCCCC3)nc(Cl)c2n1
Response: -0.70

Query: Please give the measured log10 MIC for this compound: Clc1cc(Cl)n2c(-c3ccc(Br)cc3)nc(Cl)c2n1
Response: -0.11

Query: Please give the measured log10 MIC for this compound: Clc1cc(Cl)n2c(-c3cccs3)ncc2n1
Response: 0.19

Query: Please give the measured log10 MIC for this compound: Clc1cc(Cl)n2c(Cc3cccs3)ncc2n1
Response: 0.80

Query: Please give the measured log10 MIC for this compound: Clc1ccc(Cc2nc(Cl)c3nc(Cl)cc(Cl)n23)cc1
Response: -0.70

Query: Please give the measured log10 MIC for this compound: Clc1cc(Cl)n2c(-c3ccc(Br)s3)ncc2n1
Response: -0.11

###

- Test system: Candida albicans IFO-1594
Result type: MIC (µg/mL)
Numeric only. Scale: µg/mL

Query: Please give the measured MIC for this molecule: Clc1cc(Cl)n2c(-c3ccc(Cl)s3)ncc2n1
Response: 0.2

Query: Please give the measured MIC for this molecule: Clc1cc(Cl)n2c(C3CCCCC3)nc(Cl)c2n1
Response: 1.56

Query: Please give the measured MIC for this molecule: Clc1cc(Cl)n2c(-c3ccc(Br)s3)ncc2n1
Response: 3.13

Query: Please give the measured MIC for this molecule: Clc1ccc(Cc2nc(Cl)c3nc(Cl)cc(Cl)n23)cc1
Response: 3.13

Query: Please give the measured MIC for this molecule: Clc1cc(Cl)n2c(-c3ccco3)ncc2n1
Response: 3.13

Query: Please give the measured MIC for this molecule: Cc1ccc(-c2ncc3nc(Cl)cc(Cl)n23)s1
Response: 6.25

Query: Please give the measured MIC for this molecule: Clc1cc(Cl)n2c(Cc3cccs3)ncc2n1
Response: 3.13

Query: Please give the measured MIC for this molecule: Clc1cc(Cl)n2c(-c3ccsc3)ncc2n1
Response: 3.13

Query: Please give the measured MIC for this molecule: Clc1cc(Cl)n2c(-c3ccc(Br)cc3)nc(Cl)c2n1
Response: 1.56

Query: Please give the measured MIC for this molecule: Clc1cc(Cl)n2c(-c3cccs3)ncc2n1
Response: 1.56

Query: Please give the measured MIC for this molecule: Clc1cc(Cl)n2c(-c3ccccc3)nc(Cl)c2n1
Response: 3.13
